Data credit: patent US4156000A

System: rear paw which has received the carrageenin
Experiment: Anti-inflammatory activity: carrageenin-induced rear paw swelling, oral administration
Format: in vivo, rats (male SPF, strain OFA)
Conditions: Rattus norvegicus; 64 mg/kg oral administration; read-out: % of inhibition (reduction of swelling)
Each entry below lists one item and its recorded inhibition in vivo at 64 mg/kg value.
Numbers only here, please. The scale is %.

Previously resolved entries follow.
compound="CC(C)C1Cc2cc(CC(=O)OCCN(C)C)sc2C1 (centres unmarked)" unit_info=% test_value=13
compound="CCC1Cc2cc(CC(=O)O)sc2C1 (centres unmarked)" unit_info=% test_value=55
compound="CC(C)C1Cc2cc(CC(=O)OCCN3CCOCC3)sc2C1 (centres unmarked)" unit_info=% test_value=20
compound="CCC1Cc2cc(C(C)C(=O)O)sc2C1 (centres unmarked)" unit_info=% test_value=67
compound="CC(C)C1Cc2cc(CC(=O)O)sc2C1 (centres unmarked)" unit_info=% test_value=31

[ask] Please tell me: inhibition in vivo at 64 mg/kg of CCC1Cc2cc(C(C)C(=O)OCCN(C)C)sc2C1 (centres unmarked) , system rear paw which has received the carrageenin?
[reply] 45

[ask] Lab note: need inhibition in vivo at 64 mg/kg for CC(C(=O)O)c1cc2c(s1)CC(C(C)C)C2 (centres unmarked) on rear paw which has received the carrageenin, anyone have it?
[reply] 63

[ask] Find inhibition in vivo at 64 mg/kg (rear paw which has received the carrageenin) for the entry CC(C(=O)OCCN1CCOCC1)c1cc2c(s1)CC(C(C)C)C2 (centres unmarked)
[reply] 62

[ask] So what inhibition in vivo at 64 mg/kg did CCC1Cc2cc(CC(=O)OCCN(C)C)sc2C1 (centres unmarked) get with rear paw which has received the carrageenin?
[reply] 55

[ask] Return inhibition in vivo at 64 mg/kg measured with rear paw which has received the carrageenin given this compound: CCC1Cc2cc(CC(=O)OCCN3CCOCC3)sc2C1 (centres unmarked)
[reply] 20

[ask] Please provide the recorded inhibition in vivo at 64 mg/kg for CCC1Cc2cc(C(C)C(=O)OCCN3CCOCC3)sc2C1 (centres unmarked) , tested on rear paw which has received the carrageenin.
[reply] 53

====

Test system: rear paw which has received the carrageenin
Assay: Anti-inflammatory activity: carrageenin-induced rear paw swelling, oral administration
Type: in vivo, rats (male SPF, strain OFA)
Details: Rattus norvegicus; 4 mg/kg oral administration; read-out: % of inhibition (reduction of swelling)
assay_endpoint: inhibition in vivo at 4 mg/kg (%)
Respond with the bare value in %.

Solved entries:
compound="CC(C(=O)OCCN1CCOCC1)c1cc2c(s1)CC(C(C)C)C2 (centres unmarked)" unit_info=% test_value=29
compound="CCC1Cc2cc(CC(=O)O)sc2C1 (centres unmarked)" unit_info=% test_value=17

[ask] Look at this compound and give its reported inhibition in vivo at 4 mg/kg. CC(C)C1Cc2cc(CC(=O)O)sc2C1 (centres unmarked)
[reply] 0

[ask] Would you kindly share the measured inhibition in vivo at 4 mg/kg for CC(C)C1Cc2cc(CC(=O)OCCN3CCOCC3)sc2C1 (centres unmarked) ?
[reply] 7

[ask] inhibition in vivo at 4 mg/kg for CCC1Cc2cc(C(C)C(=O)OCCN3CCOCC3)sc2C1 (centres unmarked) ?
[reply] 18

====

Each entry below carries its reported inhibition in vivo at 64 mg/kg.
System: pain reactions (abdominal contortions)
Assay: Analgesic activity: phenylbenzoquinone-induced pain reactions, oral administration
Type: in vivo, mice (male, SPF1, strain OF1)
Conditions: Mus musculus; 64 mg/kg oral administration
Experimental: Batches of 6 male mice (SPF1, strain OF1), weighing 19-20 g each are given the product to be tested, by oral administration. One hour afterwards, each mouse is injected intraperitoneally with 0.3 cm^3 of an 0.02% strength phenylbenzoquinone solution and from the 5th to the 10th minute after this latter treatment, the number of pain reactions (abdominal contortions) is counted. The table which follows gives the percentage inhibition of these reactions.
Reply with just the number (in %).

[ask] Entry under review: CC(C)C1Cc2cc(CC(=O)OCCN(C)C)sc2C1 (stereo not drawn) [Example 40] . Reported inhibition in vivo at 64 mg/kg?
[reply] 31

[ask] Request the reported inhibition in vivo at 64 mg/kg associated with CC(C)C1Cc2cc(CC(=O)O)sc2C1 (stereo not drawn) [Example 18]
[reply] 61

[ask] Param item = CCC1Cc2cc(CC(=O)OCCN(C)C)sc2C1 (stereo not drawn) [Example 33] ; retrieve measured inhibition in vivo at 64 mg/kg.
[reply] 17

[ask] Find the recorded inhibition in vivo at 64 mg/kg belonging to CCC1Cc2cc(C(C)C(=O)O)sc2C1 (stereo not drawn) [23 & 27] and report it.
[reply] 98
